src = patent US20130296258A1

biological target: T1, Recombinant human Glypican-3 (human, UniProt P51654 25-559, limits assumed, randomly biotinylated via Lysine residues (EZ-Link Sulfo-NHS-LC-LC-Biotin) where captured on Neutravidin; not biotinylated where used as competitor in solution); test: competition ELISA: constant mutein pre-incubated with a dilution series of non-biotinylated human Glypican-3, free mutein detected on plate-captured biotinylated human Glypican-3
T1 construct: Bought protein; The biotinylated and the non-biotinylated preparation are written as one molecule; also called GPC3; GPC-3
T1 sequence (P51654 25-559 limits assumed): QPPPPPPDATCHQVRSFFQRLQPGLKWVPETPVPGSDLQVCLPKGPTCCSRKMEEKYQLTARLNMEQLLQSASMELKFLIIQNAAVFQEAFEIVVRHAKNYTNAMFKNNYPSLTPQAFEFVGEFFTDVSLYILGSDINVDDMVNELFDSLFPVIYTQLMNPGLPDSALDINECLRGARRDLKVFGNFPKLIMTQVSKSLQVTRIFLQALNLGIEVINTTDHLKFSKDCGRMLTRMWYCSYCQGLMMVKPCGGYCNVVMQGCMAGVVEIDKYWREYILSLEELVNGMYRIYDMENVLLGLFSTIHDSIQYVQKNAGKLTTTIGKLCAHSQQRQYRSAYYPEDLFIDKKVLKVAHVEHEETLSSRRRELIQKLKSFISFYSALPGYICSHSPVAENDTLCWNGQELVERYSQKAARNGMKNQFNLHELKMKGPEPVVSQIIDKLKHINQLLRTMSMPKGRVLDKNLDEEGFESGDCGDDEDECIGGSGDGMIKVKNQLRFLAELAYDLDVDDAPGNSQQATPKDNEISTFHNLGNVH
Exercise: for every item that follows, state its recorded pIC50.
When answering, recall that pIC50 equals minus log10 of the concentration in mol/L, and write that number alone.

-- ask Answer with reported pIC50 of PIE-G3F (designed binder, C-terminal Strep-tag II; also called Lcn2 mutein; not shown: C-terminal Strep-tag II) QDSTSDLIPAPPLSKVPLQQNFQDNQFHGKWYVVGIAGNGQLREDKDPWKMSATIYELKEDKSYNVTSVRFRLKKCSYWIYTFVPGSQPGEFTLGGIKSNPGDTSNLVRVVSTNYNQHAMVFFKYVIQNREWFIITLYGRTKELTSELKENFIRFSKSLGLPENHIVFPVPIDQCIDGSAWSHPQFEK
-- reply 10.15

-- ask Identify pIC50 associated with the binder PIE-G3G (designed binder, C-terminal Strep-tag II; also called Lcn2 mutein; not shown: C-terminal Strep-tag II) QDSTSDLIPAPPLSKVPLQQNFQDNQFHGKWYVVGMAGNASLREDKDPRKMNATIYELKEDKSYNVTKVRFWHKKCYYSITTFVPGSQPGEFTLGDIKSYPGWTSYLVRVVSTNYNQHAMVFFKGVRQNREWFSITLYGRTKELTSELKENFIRFSKSLGLPENHIVFPVPIDQCIDGSAWSHPQFEK
-- reply 10.00

-- ask Return the recorded pIC50 value; entry: PIE-G3B (designed binder, C-terminal Strep-tag II; also called Lcn2 mutein; not shown: C-terminal Strep-tag II) QDSTSDLIPAPPLSKVPLQQNFQDNQFHGKWYVVGVAGNAMLREDKDPLKMRATIYELKEDKSYNVTGVSFWRKKCHYKIGTFVPGSQPGEFTLGDIKSGPGQTSNLVRVVSTNYNQHAMVFFKEVRQNREWFAITLYGRTKELTSELKENFIRFSKSLGLPENHIVFPVPIDQCIDGSAWSHPQFEK
-- reply 9.70

-- ask Check the records and state pIC50 for PIE-G3C (designed binder, C-terminal Strep-tag II; also called Lcn2 mutein; not shown: C-terminal Strep-tag II) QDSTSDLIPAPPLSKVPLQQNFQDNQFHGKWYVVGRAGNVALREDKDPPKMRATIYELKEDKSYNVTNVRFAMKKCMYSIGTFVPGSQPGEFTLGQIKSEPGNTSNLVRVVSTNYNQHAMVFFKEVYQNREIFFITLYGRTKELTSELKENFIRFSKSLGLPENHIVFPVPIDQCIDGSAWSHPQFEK
-- reply 9.00
